- ASSAYED_TARGET: human MRGPR X4 (Homo sapiens)
- Construct: expressed in transfected cells
- ASSAY_NOTES: MRGPR X4 antagonist activity, IP-One Gq HTRF assay in stably transfected HEK cells
- Assay type: cell-based
- Description: HEK cells stably transfected to express human MIRGPR X4 were maintained in an incubator at 37° C. with 5% CO2 and grown in DMEM media with 10% fetal bovine serum (FBS) and […] each of sodium pyruvate, Glutamax, penicillin/streptomycin, and Geneticin. […] Cells were plated in a 384-well assay plate at 20,000 cells per well in 12 μL of Opti-MEM and kept in an incubator overnight. […] The plate was read on a Molecular Devices SpectraMax iD5 plate reader. […]
Documented IC50 across a set of compounds
READOUT_LABEL: IC50

In [3]: df
Out[3]:
                                        smi  experimental_value
0  O=C(NCCc1ccccc1O)c1nn(Cc2ccc(Cl)cc2)c2ccccc12            < 0.1 µM
1  Cc1ncccc1CCNC(=O)c1nn(Cc2ccc(Cl)cc2)c2ccccc12       0.1 to 0.5 µM
2  CC(C)(C)c1cnc(Cn2nc(C(=O)NCCc3nnc4ccccn34)c3ccccc32)o1       0.501 to 1 µM
3  Cc1ccc(Cn2nc(C(=O)NCCc3nnc4n3CCCCC4)c3ccccc32)cc1            < 0.1 µM
4  COc1ccc(CCNC(=O)c2cn(Cc3cccc(F)c3)c3ccccc23)cn1         1 to 2.5 µM
5  O=C(NCc1ncc(-c2ccccc2)[nH]1)c1nn(Cc2ccc(Cl)cc2)c2ccccc12       0.501 to 1 µM
6  Cc1cc(C)nc(CCNC(=O)c2nn(Cc3ccc(Cl)cc3)c3ccccc23)n1         1 to 2.5 µM
7  N#Cc1ccc(Cn2cc(C(=O)NCCc3cccnc3)c3ccccc32)cc1       0.501 to 1 µM
8  O=C(NCCc1cccnc1)c1nn(Cc2cccc(F)c2)c2ccccc12         1 to 2.5 µM

---

- ASSAYED_TARGET: human MRGPR X4 (Homo sapiens, UniProt Q96LA9)
- Construct: expressed in transfected cells
- Sequence (Q96LA9 whole entry): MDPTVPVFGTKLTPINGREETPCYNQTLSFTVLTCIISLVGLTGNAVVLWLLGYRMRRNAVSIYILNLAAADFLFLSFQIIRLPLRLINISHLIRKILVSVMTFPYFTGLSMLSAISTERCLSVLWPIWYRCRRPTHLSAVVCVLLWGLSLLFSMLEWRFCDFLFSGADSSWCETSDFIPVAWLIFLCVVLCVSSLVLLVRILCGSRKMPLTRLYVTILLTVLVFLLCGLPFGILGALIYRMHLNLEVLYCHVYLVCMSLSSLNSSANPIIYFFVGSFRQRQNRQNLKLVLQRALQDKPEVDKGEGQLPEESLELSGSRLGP
- ASSAY_NOTES: MRGPR X4 antagonist activity, IP-One Gq HTRF assay in stably transfected HEK cells
- Format: cell-based
pIC50: −log10 of the molar value.
READOUT_LABEL: pIC50

                                    compound  experimental_value
 0  O=C(NCCc1nc2c(s1)CCCC2)c1nn(Cc2cccc(F)c2)c2ccccc12 [Compound 81]        6.00 to 6.30
 1  O=C(NCCc1nnc2n1CCCCC2)c1nn(Cc2ccc(Cl)cc2)c2ccccc12 [Compound 6]              > 7.00
 2  Cc1cc(Cn2nc(C(=O)NCCc3nc4c(s3)CCCC4)c3ccccc32)ccc1Cl [Compound 68]        6.30 to 7.00
 3  O=C(NCCc1cccnc1)c1nn(Cc2ccc(Cl)c(Cl)c2)c2ccccc12 [Compound 22]              > 7.00
 4  Cc1[nH]c2ccc(O)cc2c1CCNC(=O)c1nn(Cc2ccc(Cl)cc2)c2ccccc12 [Compound 416]              > 7.00
 5  Cc1ccc(Cn2nc(C(=O)NCCc3ncon3)c3ccccc32)cc1 [Compound 126]              < 5.60
 6  Cc1cccc(CCNC(=O)c2nn(Cc3ccc(Cl)cc3)c3ccccc23)c1 [Compound 362]        5.60 to 6.00
 7  Cc1ccc(Cn2cc(C(=O)NCCc3nc(C)cs3)c3ccccc32)cc1 [Compound 159]        6.30 to 7.00
 8  O=C(NCCc1nnc2ccccn12)c1nn(Cc2ccc3cc[nH]c3c2)c2ccccc12 [Compound 556]              > 7.00
 9  Cc1ccc(Cn2cc(C(=O)NCc3ccncc3)c3ccccc32)cc1 [Compound 231]              < 5.60
10  O=C(NCCc1ccc(O)cc1)c1nn(Cc2ccc(Cl)cc2)c2ccccc12 [Compound 40]        6.30 to 7.00
11  O=C(NCCc1cn2c(n1)SCC2)c1nn(Cc2ccc(Cl)cc2)c2ccccc12 [Compound 33]        6.30 to 7.00
12  O=C(NCc1ccc(-n2cccn2)nc1)c1nn(Cc2ccc(Cl)cc2)c2ccccc12 [Compound 369]              < 5.60
13  Cc1ccc(Cn2nc(C(=O)NCCc3nnc4n3CCCCC4)c3cccc(F)c32)cc1 [Compound 116]        5.60 to 6.00
14  O=C(NCCc1noc(-c2ccccc2)n1)c1nn(Cc2ccc(Cl)cc2)c2ccccc12 [Compound 105]        5.60 to 6.00
15  Cc1ccc(Cn2cc(C(=O)NCCc3ccncc3)c3ccccc32)cc1 [Compound 172]        6.30 to 7.00
16  O=C(NCCc1nc2c(s1)CCCC2)c1nn(Cc2ccc(OC(F)F)cc2)c2ccccc12 [Compound 82]        6.00 to 6.30
17  O=C(NCCc1nnc2ccccn12)c1nn(Cc2ccc(Cl)cc2F)c2ccccc12 [Compound 527]              > 7.00
18  Cc1ncsc1CCNC(=O)c1nn(Cc2ccc(Cl)cc2)c2ccccc12 [Compound 367]        6.30 to 7.00
19  Cc1cccn2c(CCNC(=O)c3nn(Cc4ccc(Cl)cc4)c4ccccc34)nnc12 [Compound 4]              > 7.00
20  Cc1ccc(Cn2nc(C(=O)NCCc3cccnc3)c3ccccc32)cc1 [Compound 52]        6.30 to 7.00
21  COc1ccccc1CCNC(=O)c1cn(Cc2ccc(Cl)cc2)c2ccccc12 [Compound 177]        6.30 to 7.00
22  O=C(NCCc1nnc2ccccn12)c1nn(Cc2ncc3cc(Cl)ccc3n2)c2ccccc12 [Compound 436]        6.30 to 7.00
23  O=C(NCCc1nnc2ccccn12)c1nn(Cc2ccc(Cl)cc2F)c2ccc(F)cc12 [Compound 572]              > 7.00
24  O=C(NCCc1nnc2ccccn12)c1nn(Cc2cc3c(cc2Cl)OCO3)c2ccc(F)cc12 [Compound 536]              > 7.00
25  COc1ccc2c(c1)c(C(=O)NCCc1nnc3ccccn13)nn2Cc1ccc(Cl)cc1 [Compound 543]        6.30 to 7.00
26  Cc1ccc(Cn2nc(C(=O)NCCc3ccncc3)c3ccccc32)cc1 [Compound 78]        6.00 to 6.30
27  N#Cc1ccccc1Cn1nc(C(=O)NCCc2cccnc2)c2ccccc21 [Compound 47]        6.30 to 7.00
28  O=C(NCCc1cccc(Cl)c1)c1nn(Cc2ccc(Cl)cc2)c2ccccc12 [Compound 339]        6.00 to 6.30
29  Cc1ccc(Cn2nc(C(=O)NCCc3cnccn3)c3ccccc32)cc1 [Compound 97]        5.60 to 6.00
30  O=C(CNC(=O)c1nn(Cc2ccc(Cl)cc2)c2ccccc12)NCC(F)(F)F [Compound 347]              < 5.60
31  N#Cc1ccc2nc(CNC(=O)c3nn(Cc4ccc(Cl)cc4)c4ccccc34)cn2c1 [Compound 424]        6.00 to 6.30
32  O=C(NCCc1nnc2ccccn12)c1nn(Cc2ccc3c(c2)OCO3)c2ccccc12 [Compound 508]        6.30 to 7.00
33  N#Cc1cccc(Cn2nc(C(=O)NCCc3nnc4ccccn34)c3ccccc32)c1 [Compound 446]        5.60 to 6.00

---

- ASSAYED_TARGET: human MRGPR X4 (Homo sapiens, UniProt Q96LA9)
- Construct: expressed in transfected cells
- ASSAY_NOTES: MRGPR X4 antagonist activity, IP-One Gq HTRF assay in stably transfected HEK cells
- Assay type: cell-based
pIC50: −log10 of the molar value.
READOUT_LABEL: pIC50

>>> print(df.to_string())
                                    compound  experimental_value
 0  O=C(NCCc1ccccc1C(F)(F)F)c1cn(Cc2ccc(Cl)cc2)c2ccccc12        6.00 to 6.30
 1  O=C(NCCc1cccnc1)c1nn(Cc2ccc(OC(F)F)cc2)c2ccccc12        6.30 to 7.00
 2  Cc1ccc(Cn2nc(C(=O)NCCc3nc(C)cs3)c3ccccc32)cc1        6.30 to 7.00
 3  Cn1c(Cn2nc(C(=O)NCCc3nnc4ccccn34)c3ccccc32)nc2cc(F)ccc21        6.30 to 7.00
 4  O=C(NCCc1cccnc1)c1nn(Cc2ccc(F)cc2)c2ccccc12        6.30 to 7.00
 5  Cc1cccc2[nH]c(CCNC(=O)c3nn(Cc4ccc(Cl)cc4)c4ccccc34)nc12              > 7.00
 6  Cc1ccc2c(c1)c(C(=O)NCCc1nnc3ccccn13)nn2Cc1ccc(Cl)cc1              > 7.00
 7  O=C(Nc1cnc2ccccc2c1)c1nn(Cc2ccc(Cl)cc2)c2ccccc12        5.60 to 6.00
 8  Cc1cccc(CCNC(=O)c2cn(Cc3ccc(Cl)cc3)c3ccccc23)n1              > 7.00
 9  Cc1ccc(Cn2nc(C(=O)NCCc3nc4c(s3)CCC4)c3ccccc32)cc1        6.30 to 7.00
10  O=C(NCCn1cc(-c2cncnc2)nn1)c1nn(Cc2ccc(Cl)cc2)c2ccccc12        6.00 to 6.30
11  COc1ccc(CCNC(=O)c2nn(Cc3ccc(Cl)cc3)c3ccccc23)cn1        6.30 to 7.00
12  Cc1cccc(Cn2nc(C(=O)NCCc3cccnc3)c3ccccc32)c1        5.60 to 6.00
13  O=C(NCC(O)c1cccnc1)c1cn(Cc2ccc(Cl)cc2)c2ccccc12 (stereo not drawn)        6.30 to 7.00
14  Cc1ccc(CCNC(=O)c2cn(Cc3ccc(Cl)cc3)c3ccccc23)cc1        6.30 to 7.00
15  O=C(NCCCn1ccnc1)c1nn(Cc2ccc(Cl)cc2)c2ccccc12              < 5.60
16  O=C(NCCc1cncnc1)c1cn(Cc2ccc(Cl)cc2)c2ccccc12        5.60 to 6.00
17  COc1ccccc1Cn1cc(C(=O)NCCc2cccnc2)c2ccccc21              < 5.60
